- Tested on: Puccinia recondita
- Run description: Example A: in vivo preventive test on Puccinia recondita (brown rust on wheat)
- Test conditions: 264 h, 500 ppm of active ingredient, preventive spray, evaluated 11 days after inoculation, read-out: efficacy
Entries and their pest or weed control at 500 ppm values follow.
Parameter measured: pest or weed control at 500 ppm

| Molecule | Reported measurement |
| --- | --- |
| CCC1COC(Cn2cncn2)(c2ccc(Oc3ccc(C(F)(F)F)cc3)nc2C(F)(F)F)O1 (stereo not shown) | 90 to 100% |
| FC(F)(F)c1nc(Oc2ccc(Cl)cc2)ccc1C1(Cn2nc[nH]c2=S)OCCO1 | 90 to 100% |
| FC(F)(F)c1nc(Oc2ccc(Cl)cc2)ccc1C1(Cn2cncn2)OCCO1 | 90 to 100% |
| FC(F)(F)c1ccc(Oc2ccc(C3(Cn4nc[nH]c4=S)OCCO3)c(C(F)(F)F)n2)cc1 | 90 to 100% |

* * *

- Run description: LogP by HPLC on reversed phase columns (EEC directive 79/831 Annex V.A8)
- Format: physicochemical
- Test conditions: method [a]: LC-UV, acidic range, 0.1% formic acid in water and acetonitrile as eluent
- Description: Measurement of LogP values was performed according to EEC directive 79/831 Annex V.A8 by HPLC (High Performance Liquid Chromatography) on reversed phase columns with the following methods: • ^[a] […] Lambda-max-values were determined using UV-spectra from 200 nm to 400 nm and the peak values of the chromatographic signals.
Entries and their LogP values follow.

| Compound | LogP |
| --- | --- |
| FC(F)(F)c1nc(Oc2ccc(Br)cc2)ccc1C1(Cn2cncn2)OCC(C(F)(F)F)O1 (racemic) [I.26] | 2.26 ^[a] |
| CC1OC(Cn2cncn2)(c2ccc(Oc3ccc(Br)cc3)nc2C(F)(F)F)OC1C (mixture of isomers) [I.17] | 3.85^[a] |
| CC1OC(Cn2cncn2)(c2ccc(Oc3ccc(Cl)cc3)nc2C(F)(F)F)OC1C (mixture of isomers) [I.18] | 3.76^[a] |
| CC1COC(Cn2cncn2)(c2ccc(Oc3ccc(S(F)(F)(F)(F)F)cc3)nc2C(F)(F)F)O1 (mixture of isomers) [I.19] | 3.85^[a] |
| CSc1ccc(Oc2ccc(C3(Cn4nc[nH]c4=S)OCCO3)c(C(F)(F)F)n2)cc1 [I-S.04] | 2.95 ^[a] |
| CCC1COC(Cn2cncn2)(c2ccc(Oc3ccc(Cl)cc3)nc2C(F)(F)F)O1 (mixture of isomers) [I.15] | 3.83^[a] |
| CCCC1COC(Cn2cncn2)(c2ccc(Oc3ccc(Br)cc3)nc2C(F)(F)F)O1 (mixture of isomers) [I.08] | 4.32^[a] |
| FC(F)(F)c1nc(Oc2ccc(Br)cc2)ccc1C1(Cn2nc[nH]c2=S)OCCO1 [I-S.05] | 3.14 ^[a] |
| CC1COC(Cn2cncn2)(c2ccc(Oc3ccc(OC(F)(F)F)cc3)nc2C(F)(F)F)O1 (mixture of isomers) [I.21] | 3.76 ^[a] |
| CC1COC(Cn2cncn2)(c2ccc(Oc3ccc(Br)cc3)nc2C(F)(F)F)O1 (centres unmarked) [I.16] | 3.55 |
| CC1COC(Cn2cncn2)(c2ccc(Oc3ccc(Cl)cc3)nc2C(F)(F)F)O1 (single isomer, unassigned) [I.12] | 3.48^[a] |
| CCC1COC(Cn2cncn2)(c2ccc(Oc3ccc(Br)cc3)nc2C(F)(F)F)O1 (mixture of isomers) [I.06] | 3.94^[a] |
| CC1COC(Cn2cncn2)(c2ccc(Oc3ccc(Cl)cc3)nc2C(F)(F)F)O1 (mixture of isomers) [I.03] | 3.55^[a] |
| Cc1ccc(Oc2ccc(C3(Cn4cncn4)OCCO3)c(C(F)(F)F)n2)cc1 [I.25] | 3.21 ^[a] |
| CCC1COC(Cn2cncn2)(c2ccc(Oc3ccc(OC(F)(F)F)cc3)nc2C(F)(F)F)O1 (centres unmarked) [I.24] | 4.09 ^[a] |
| Cc1ccc(Oc2ccc(C3(Cn4nc[nH]c4=S)OCCO3)c(C(F)(F)F)n2)cc1 [I-S.03] | 2.94 ^[a] |
| CCC1COC(Cn2cncn2)(c2ccc(Oc3ccc(S(F)(F)(F)(F)F)cc3)nc2C(F)(F)F)O1 (mixture of isomers) [I.01] | 4.15^[a] |

Source: patent US20190211002A1
